Recorded IC50 values for a group of compounds are listed next.
- targetDesc: Capsid scaffolding protein (Human herpesvirus 1 (strain 17), UniProt P10210)
- Sequence (P10210 whole entry): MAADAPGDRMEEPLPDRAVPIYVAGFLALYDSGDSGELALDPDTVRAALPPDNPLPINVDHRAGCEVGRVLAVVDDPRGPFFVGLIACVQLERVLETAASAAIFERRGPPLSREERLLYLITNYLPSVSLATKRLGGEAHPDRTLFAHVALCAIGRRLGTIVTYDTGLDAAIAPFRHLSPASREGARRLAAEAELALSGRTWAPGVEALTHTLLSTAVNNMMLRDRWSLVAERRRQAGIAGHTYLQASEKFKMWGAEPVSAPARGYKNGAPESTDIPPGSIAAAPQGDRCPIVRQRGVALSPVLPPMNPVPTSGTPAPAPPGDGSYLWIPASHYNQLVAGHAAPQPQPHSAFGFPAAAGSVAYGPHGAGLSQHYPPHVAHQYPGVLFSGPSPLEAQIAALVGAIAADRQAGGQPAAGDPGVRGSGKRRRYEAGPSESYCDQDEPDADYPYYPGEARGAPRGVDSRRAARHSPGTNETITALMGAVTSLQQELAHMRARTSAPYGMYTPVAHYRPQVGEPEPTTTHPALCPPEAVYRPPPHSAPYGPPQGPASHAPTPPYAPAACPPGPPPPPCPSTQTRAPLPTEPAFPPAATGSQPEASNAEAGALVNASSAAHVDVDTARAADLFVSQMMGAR
- experimentSummary: Zhang-Poorman Assay
- conditionsUsed: pH 5.52
Response body: numeric value in nM, unit text excluded.

compound	IC50, nM
CC(C)C[C@@H](NC(=O)[C@H](NC(=O)CCCCCCCCCCCCCCC(=O)N[C@H](CC(N)=O)C(=O)N[C@@H](Cc1ccccc1)C(=O)O)C(C)O)C(=O)NCCc1ccc(Oc2ccc(O)cc2)cc1 (some centres not stated)	360
CC(C)C[C@@H](NC(=O)[C@H](NC(=O)CCCCCCCCCCCCCCC(=O)N[C@H](CC(N)=O)C(=O)N[C@@H](Cc1ccccc1)C(=O)O)C(C)O)C(=O)NCCc1ccc(Oc2ccccc2)cc1 (some centres not stated)	730
CC(C)C[C@@H](NC(=O)[C@H](NC(=O)CCCCCCCCCCCCCCC(=O)N[C@H](CC(N)=O)C(=O)N[C@@H](Cc1ccccc1)C(=O)O)C(C)O)C(=O)NCCc1ccc(N)cc1 (some centres not stated)	2500
COc1ccc(CCNC(=O)[C@@H](CC(C)C)NC(=O)[C@H](NC(=O)CCCCCCCCCCCCCCC(=O)N[C@H](CC(N)=O)C(=O)N[C@@H](Cc2ccccc2)C(=O)O)C(C)O)cc1OC (some centres not stated)	4300
CC(C)C[C@@H](NC(=O)[C@H](NC(=O)CCCCCCCCCCCCCCC(=O)N[C@H](CC(N)=O)C(=O)N[C@@H](Cc1ccccc1)C(=O)O)C(C)O)C(=O)NCCc1ccc(O)c(O)c1 (some centres not stated)	2900

Reported IC50 ( COc1ccc(CCNC(=O)[C@@H](CC(C)C)NC(=O)[C@H](NC(=O)CCCCCCCCCCCCCCC(=O)N[C@H](CC(N)=O)C(=O)N[C@@H](Cc2ccccc2)C(=O)O)C(C)O)cc1 (some centres not stated) ) = 2700

Reported IC50 ( CC(C)C[C@@H](NC(=O)[C@H](NC(=O)CCCCCCCCCCCCCCC(=O)N[C@H](CC(N)=O)C(=O)N[C@@H](Cc1ccccc1)C(=O)O)C(C)O)C(=O)NCCc1ccc(O)cc1 (some centres not stated) ) = 5800
